- Test system: HLA-A2::Mart-1(26-35) reactive T cells stimulated by T2 cells
- Measurement protocol: T cell activation time course assay, IFNγ production (FACS), Mart-1 epitope
- Assay type: cell-based
- Conditions used: peptide 0.5 pM, time point 4H
Assay endpoint: % CD8+ T cells producing IFN-γ 4H (%)
Quick reminder: number only, in %, skip the unit.

Per the records, this substance ( `[am-phg][NVA]AGIGILT[PRG]` ) has % CD8+ T cells producing IFN-γ 4H equal to 30

Measured % CD8+ T cells producing IFN-γ 4H, `[am-phg][NVA]AGIGILT[ALG]` : 29

For `[CSME][2-AOC]AGIGILTV` the substance record lists % CD8+ T cells producing IFN-γ 4H as 29

Value of measured % CD8+ T cells producing IFN-γ 4H for the entry `[am-phg]LAGIGILT[PRG]` : 29

Per the records, this substance ( `[am-phg][2-AOC]AGIGILT[PRG]` ) has % CD8+ T cells producing IFN-γ 4H equal to 30

----------
- Tested system: HLA-A0201 (Homo sapiens, UniProt P04439, D140Y/D185E/D98H/E176V/E277Q/G131W/G231S/I119V/I121R/I166T/I218V/L300P/L318F/N151K/N90K/P208A/P217A/Q86G/Q94H/R138H/R169H/T345S)
- Assay type: binding
ALG = not defined here; PHG = not defined here
Reported IC50 Ratio values follow for various substances
Please respond with just the number, no unit label.

Take a look at these entries with their results.
{"Substance": "[PHG]I[NLE]GFVFTL", "IC50 Ratio": 3}
{"Substance": "[PHG][NVA]AGIGILT[ALG] ({PHG-NVA}-AGIGILT-{ALG}; reading uncertain; also: printed as [PHG][NVA]AGIGILT[ALG])", "IC50 Ratio": 18.9}
{"Substance": "[am-phg][BUTALA]LGFV[4-FPHE]TL", "IC50 Ratio": 3}
{"Substance": "[PHG][NLE]LGFVFTL", "IC50 Ratio": 4}
{"Substance": "[PHG]AAGIGI[4-FPHE]T[NLE]", "IC50 Ratio": 6.8}

# IC50 Ratio (substance: `[am-phg][BUTALA]LGFVFTL` ) is 3

Consider `[CSME][2-AOC]AGIGILT[PRG]` . Its measured IC50 Ratio is 14.8

Noted for `[CSME][NVA]AGIGILT[PRG]` : its IC50 Ratio reads 2.8

What the record says about `[am-phg][CpALA]LGFVFTL` : IC50 Ratio is 2

Record `[am-phg]AAGIGI[4-FPHE]TV` , field IC50 Ratio: 2.1

----------
Each record here notes measured Geometric mean IFN-γ in arbitrary fluorescence units 4H.
- System: HLA-A2::Mart-1(26-35) reactive T cells stimulated by T2 cells
- Measurement protocol: T cell activation time course assay, IFNγ production (FACS), Mart-1 epitope
- Assay type: cell-based
- Conditions used: peptide 0.5 pM, time point 4H

# Geometric mean IFN-γ in arbitrary fluorescence units 4H of `[CSME][2-AOC]AGIGILTV` = 368 arbitrary fluorescence units

----------
- Test system: HLA-A2::Mart-1(26-35) reactive T cells stimulated by T2 cells
- Measurement protocol: T cell activation time course assay, IFNγ production (FACS), Mart-1 epitope
- Assay type: cell-based
- Conditions used: peptide 50 pM, time point 24H, free peptide washed away
Listed substances paired with reported Geometric mean IFN-γ in arbitrary fluorescence units 24H

Example cases with answers are listed next.
{"Substance": "[am-phg][NVA]AGIGILT[ALG]", "Tested system": "HLA-A2::Mart-1(26-35) reactive T cells stimulated by T2 cells", "Recorded result": "400 arbitrary fluorescence units"}
{"Substance": "[am-phg]LAGIGILT[PRG]", "Tested system": "HLA-A2::Mart-1(26-35) reactive T cells stimulated by T2 cells", "Recorded result": "342 arbitrary fluorescence units"}
{"Substance": "[am-phg][2-AOC]AGIGILT[PRG]", "Tested system": "HLA-A2::Mart-1(26-35) reactive T cells stimulated by T2 cells", "Recorded result": "187 arbitrary fluorescence units"}
{"Substance": "[CSME][2-AOC]AGIGILTV", "Tested system": "HLA-A2::Mart-1(26-35) reactive T cells stimulated by T2 cells", "Recorded result": "397 arbitrary fluorescence units"}

Now for another entry.
Reported Geometric mean IFN-γ in arbitrary fluorescence units 24H for `[am-phg][NVA]AGIGILT[PRG]` was 344 arbitrary fluorescence units

----------
- Tested on: SVYDFFVWL (TRP-2 180-188) reactive T cells
- Measurement protocol: T cell activation time course assay, IFNγ production (FACS), TRP-2 epitope
- Conditions used: 24H, peptide 5·10^3 pM
Assay endpoint: % CD8+ T cells producing IFN-γ peptide concentrations in picomolar 24H 5·10^3 (%)
Write the number in % without appending the unit.

Consider the worked cases shown below.
{"Substance": "[am-phg][CpALA]YDFFVW[PRG]", "Recorded result": 14}
{"Substance": "[am-phg][2-AOC]YDFFVW[ALG]", "Recorded result": 7}

Data point: `[CSME][NVA]YDFFVW[PRG]` ; % CD8+ T cells producing IFN-γ peptide concentrations in picomolar 24H 5·10^3 = 26

Per the record, `[CSME][CpALA]YDFFVW[PRG]` has % CD8+ T cells producing IFN-γ peptide concentrations in picomolar 24H 5·10^3 of 27

Value of % CD8+ T cells producing IFN-γ peptide concentrations in picomolar 24H 5·10^3 reported for the substance `[PHG][NVA]YDFFVW[PRG]` is 33

// sample `[PHG][NVA]YDFFVW[ALG]` , its % CD8+ T cells producing IFN-γ peptide concentrations in picomolar 24H 5·10^3 was 35

Documented % CD8+ T cells producing IFN-γ peptide concentrations in picomolar 24H 5·10^3 of `[PHG][2-AOC]YDFFVW[PRG]` : 20

Briefly, % CD8+ T cells producing IFN-γ peptide concentrations in picomolar 24H 5·10^3 measured for `[CSME][2-AOC]YDFFVW[PRG]` : 7

Entry `[am-phg][NVA]YDFFVW[PRG]` ; % CD8+ T cells producing IFN-γ peptide concentrations in picomolar 24H 5·10^3 = 26

----------
Measured % CD8+ T cells producing IFN-γ peptide concentrations in picomolar 24H 0.5 accompanies every entry in the list below.
- Test system: SVYDFFVWL (TRP-2 180-188) reactive T cells
- Measurement protocol: T cell activation time course assay, IFNγ production (FACS), TRP-2 epitope
- Conditions used: 24H, peptide 0.5 pM
Output spec: scalar in %, unitless text.

{"Substance": "[PHG][CpALA]YDFFVWL", "Tested system": "SVYDFFVWL (TRP-2 180-188) reactive T cells", "Recorded result": 1}
{"Substance": "[am-phg][NVA]YDFFVW[PRG]", "Tested system": "SVYDFFVWL (TRP-2 180-188) reactive T cells", "Recorded result": 0}
{"Substance": "[PHG][2-AOC]YDFFVW[PRG]", "Tested system": "SVYDFFVWL (TRP-2 180-188) reactive T cells", "Recorded result": 0}
{"Substance": "[CSME][NVA]YDFFVW[PRG]", "Tested system": "SVYDFFVWL (TRP-2 180-188) reactive T cells", "Recorded result": 0}
{"Substance": "[PHG][NVA]YDFFVW[ALG]", "Tested system": "SVYDFFVWL (TRP-2 180-188) reactive T cells", "Recorded result": 0}

# % CD8+ T cells producing IFN-γ peptide concentrations in picomolar 24H 0.5 of `[CSME][2-AOC]YDFFVW[PRG]` = 0

Noted for `[PHG][NVA]YDFFVWL` : its % CD8+ T cells producing IFN-γ peptide concentrations in picomolar 24H 0.5 reads 0

# % CD8+ T cells producing IFN-γ peptide concentrations in picomolar 24H 0.5 of `[CSME][CpALA]YDFFVW[PRG]` = 1

----------
- System: HLA-A2::Mart-1(26-35) reactive T cells stimulated by T2 cells
- Measurement protocol: T cell activation time course assay, IFNγ production (FACS), Mart-1 epitope
- Format: cell-based
- Conditions used: peptide 0.5 pM, time point 2H
Each item that follows carries a reported % CD8+ T cells producing IFN-γ 2H.
Only the number, expressed in %, is required.

{"Substance": "[am-phg]LAGIGILT[PRG]", "Tested system": "HLA-A2::Mart-1(26-35) reactive T cells stimulated by T2 cells", "Units": "%", "% CD8+ T cells producing IFN-γ 2H": 27}
{"Substance": "[CSME][2-AOC]AGIGILTV", "Tested system": "HLA-A2::Mart-1(26-35) reactive T cells stimulated by T2 cells", "Units": "%", "% CD8+ T cells producing IFN-γ 2H": 27}

Consider `[am-phg][NVA]AGIGILT[PRG]` . Its measured % CD8+ T cells producing IFN-γ 2H is 25

Just so you know, measured % CD8+ T cells producing IFN-γ 2H for `[am-phg][NVA]AGIGILT[ALG]` came out at 26

Record `[am-phg][2-AOC]AGIGILT[PRG]` , field % CD8+ T cells producing IFN-γ 2H: 26

Reference source for all entries: patent EP2649091B1
